Each recorded value in this set is attributed to the supplement of paper PMC6555819.

Test system: LXRb:RXRa (NR concentration 270 nM, RXRa partner concentration 90 nM)
testName: PBM binding z-score (relative to random genomic background probes); higher = stronger binding; sequences stand for … in GC…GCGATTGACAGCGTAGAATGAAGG
Grouping rule (PBM binding z-score): lower (below 0.2), middle (0.2 to below 0.9), upper (0.9 or more)

Field: class (PBM binding z-score) — entry: TTACCAAGGTGATCTGAGGTCGTTGATCCAACTC
upper

Classify this sequence: GCTCGGAGGACACGGTCAGAGCTTTGTCCGTAGA
lower

Given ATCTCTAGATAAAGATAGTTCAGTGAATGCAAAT , name the class its PBM binding z-score places it in.
lower

Looking at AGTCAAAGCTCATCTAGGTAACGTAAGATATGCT , which class would you pick?
lower

Which class holds TCTAGCAGGCCAGCGGGTCACTCAAGAGGTACGG ?
middle

Input CGGACTAGGTCAGAACAGGACAGTGAAGGATGAT ; output its category
lower

Hello team, could you let me know which band the following sequence falls into: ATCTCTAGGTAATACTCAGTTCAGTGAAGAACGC
middle

Looking at CCTGCTAGGTCACTGGTCAGCTAAAGCAGCTCGC , which class would you pick?
upper

Hey, which category is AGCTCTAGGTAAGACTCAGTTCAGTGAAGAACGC in, do you know?
lower

----------
Tested on: PPARg:RXRa 270nM:90nM, anti-RXR (NR concentration 270 nM, RXRa partner concentration 90 nM)
testName: PBM binding z-score (relative to random genomic background probes); higher = stronger binding; sequences stand for … in GC…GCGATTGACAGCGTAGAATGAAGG
Would you please tag the item 1 (yes) when its PBM binding z-score is 2 or above, and 0 (no) when it is below?

Please review the entries below; each comes with its answer.
Kindly determine if PBM binding z-score recorded for CTCGAAAGGTCGTGCCCAGGTGAGTATACCAAAC is above or exactly 2.
1 (yes)

Assess whether reported PBM binding z-score for CAATCTAGGTCAAGAGGTCAAAGTCCGCTTCCCG sits at 2 or higher.
1 (yes)

Does CCATACAGGTGAGAAGGTAACTCAGCCTCGATTA have a reported PBM binding z-score of at least 2?
0 (no)

// inclusive: PBM binding z-score at least 2? input: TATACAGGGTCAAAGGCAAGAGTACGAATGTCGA
1 (yes)

Given the entry CCGAGTAGGTTGTGGGGCATTCAGGCAACGGTGA , answer whether its PBM binding z-score meets or surpasses 2.
0 (no)

New cases:
Is PBM binding z-score for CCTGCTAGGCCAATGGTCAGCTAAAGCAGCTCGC at or above 2?
1 (yes)

----------
Tested on: PXR homodimer (NR concentration 270 nM)
testName: PBM binding z-score (relative to random genomic background probes); higher = stronger binding; sequences stand for … in GC…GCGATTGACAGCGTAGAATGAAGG
property: PBM binding z-score
// keep it numeric: no unit symbol after the value

The examples below pair each entry with its known result.
Which PBM binding z-score is reported for this sequence? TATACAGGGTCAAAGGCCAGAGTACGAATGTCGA
0.583

If you can, please state the reported PBM binding z-score value of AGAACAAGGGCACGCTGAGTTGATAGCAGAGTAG .
0.17

So what's the measured PBM binding z-score for this one? GGAACGAGGGCATGCGAGTTGATAGCATGGCGAT
0.407

Quick check: PBM binding z-score of ATCGAAAGGTCGAGGTTAGTATAGAGAAAGGGAA ?
0.569

Value lookup for PBM binding z-score; key = CAAACTAGGACAAGGTCAAAGTCGGTTTGTGCCA
1.41

Then this sequence:
Field request: PBM binding z-score | item: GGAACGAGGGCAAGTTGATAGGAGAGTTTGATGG
1.15

----------
Tested on: RARg homodimer (NR concentration 270 nM)
testName: PBM binding z-score (relative to random genomic background probes); higher = stronger binding; sequences stand for … in GC…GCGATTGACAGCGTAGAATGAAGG
Listing: PBM binding z-score of selected sequences
Give your answer as a number; write no unit.

Consider the sequence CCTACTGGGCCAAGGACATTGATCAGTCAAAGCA and give its measured PBM binding z-score.
0.267

Please give the measured PBM binding z-score for this sequence: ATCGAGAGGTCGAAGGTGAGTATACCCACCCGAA
2.62

Recorded PBM binding z-score for TCATATAGGTAAATGCTAGGTGATAGTCCGATCT , please?
0.457

I am curious: what PBM binding z-score value has been reported for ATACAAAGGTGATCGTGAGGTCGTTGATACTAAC ?
1.85

Need PBM binding z-score of TCTTGTTGGTCAAAGGTCACACACTCGAAATGCG , thanks.
6.57

Continuing:
Which PBM binding z-score reading was recorded for the sequence TGAATGATGTTAAAGATCAGGGAACGTGGCGTCG ?
0.133

----------
Tested on: RARg:RXRa (NR concentration 270 nM, RXRa partner concentration 90 nM)
testName: PBM binding z-score (relative to random genomic background probes); higher = stronger binding; sequences stand for … in GC…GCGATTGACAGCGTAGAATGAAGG
Tick 1 if PBM binding z-score is 0.9 or greater. Tick -1 if PBM binding z-score is less than 0.9.

Test whether the sequence CCGACTGGGGCAAAGGTTACCATACTCAGTACGA records PBM binding z-score of 0.9 or higher.
1

---
Threshold query (PBM binding z-score >= 0.9) on CCTACTGGGACACGAAAGGTCATTGATTCAGTGA
1

Quick check: does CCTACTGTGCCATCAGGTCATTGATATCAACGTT have PBM binding z-score greater than or equal to 0.9?
1

Confirm if PBM binding z-score reported for the sequence GCTCGGAGGACAAGGTGAGAGCTTTGTCCGTAGA is 0.9 or above.
-1

Exam item: decide whether the reported PBM binding z-score for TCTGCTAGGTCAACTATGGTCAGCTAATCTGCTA is at least 0.9.
1

Check this sequence for PBM binding z-score at or above 0.9: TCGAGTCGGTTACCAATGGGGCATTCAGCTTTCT
-1

Has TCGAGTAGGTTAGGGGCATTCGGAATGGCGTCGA a recorded PBM binding z-score greater than or equal to 0.9?
-1

Say whether TCTTGTAGATTAAAGGTTAAGAAAGCCGAAGCCT shows PBM binding z-score of 0.9 or more.
1

Hi, just wondering whether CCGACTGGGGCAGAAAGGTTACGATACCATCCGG shows PBM binding z-score of 0.9 or higher.
1

Decide: is the reported value of PBM binding z-score for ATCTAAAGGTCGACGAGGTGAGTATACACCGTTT equal to or greater than 0.9?
1

Exam item: decide whether the reported PBM binding z-score for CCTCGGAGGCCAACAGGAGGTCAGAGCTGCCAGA is at least 0.9.
1

Say whether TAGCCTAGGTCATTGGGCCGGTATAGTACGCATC shows PBM binding z-score of 0.9 or more.
1

Kindly determine if PBM binding z-score recorded for TAGCCTAGGTCTTTGGGCCAGTATAGTACGCATC is above or exactly 0.9.
-1

Given the entry TGTCAAAGTTCAAAGTTAACGTAAGTATCCACAC , answer whether its PBM binding z-score meets or surpasses 0.9.
1

Hello, I need to know if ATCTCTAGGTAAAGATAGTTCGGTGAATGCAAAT has measured PBM binding z-score not below 0.9. Thanks!
-1

# bool: PBM binding z-score of GGAACGAGGGCAAAGTTTATAGCATCTGTCGACG >= 0.9
1

Reported PBM binding z-score at or above 0.9? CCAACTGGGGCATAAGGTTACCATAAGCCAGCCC
1

----------
System: PPARg:RXRa 270nM:90nM, anti-RXR (NR concentration 270 nM, RXRa partner concentration 90 nM)
testName: PBM binding z-score (relative to random genomic background probes); higher = stronger binding; sequences stand for … in GC…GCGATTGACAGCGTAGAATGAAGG
Recorded PBM binding z-score for the following sequences
Answer using only a numeral; do not append any unit.

What value of PBM binding z-score has been recorded for this entry: CCTATTAGTTGACCATAAGGTCAACCGAAGCTCG
3.02

Given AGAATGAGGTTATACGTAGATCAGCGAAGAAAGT , state its recorded PBM binding z-score.
1.88

Continuing:
// PBM binding z-score lookup, key: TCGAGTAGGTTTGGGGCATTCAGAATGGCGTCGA
0.475

Entry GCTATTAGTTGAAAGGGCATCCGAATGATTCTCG has what PBM binding z-score?
4.39

Consider the sequence CTACCAAGGTGAACAAGGCCGTTGATTACTATTC and give its measured PBM binding z-score.
0.527

----------
System: FXR:RXRa (NR concentration 270 nM, RXRa partner concentration 90 nM)
testName: PBM binding z-score (relative to random genomic background probes); higher = stronger binding; sequences stand for … in GC…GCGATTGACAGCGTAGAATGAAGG
Label criterion met when PBM binding z-score >= 1; otherwise criterion not met.

Examples from the recorded data:
Does the sequence AGAACAAGGGCAATGAGTTGATAGCACGGGTGGC have recorded PBM binding z-score that is 1 or more?
criterion not met

Does PBM binding z-score meet or surpass 1 for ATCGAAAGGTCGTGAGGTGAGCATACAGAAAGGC ?
criterion met

Does CCTATTAGTTGACCATAAGGGCAAACGAAGCTCG have a reported PBM binding z-score of at least 1?
criterion met

***
Please indicate if the recorded PBM binding z-score for TCTAATAGTTGAAGGGCAACCGACGAGTCCGTTT meets or exceeds 1.
criterion not met

Say whether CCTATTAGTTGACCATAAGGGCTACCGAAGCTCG shows PBM binding z-score of 1 or more.
criterion not met

Does TTACCAAGGTGAAAGGTCGATGATGCACGCCTTG have a reported PBM binding z-score of at least 1?
criterion met
